- Tested on: Human immunodeficiency virus 1
- protocol-text: Antiviral activity against wild type HIV1 virus
- Type: functional, organism-based
Exercise: state measured pEC50 for each of the compounds provided.
Numbers only, as −log10 of the molar value.

Use these answered entries as a reference point.
>  <smiles-entry>
COc1ccc([C@H]2CC(=O)N(c3cccc(NS(=O)(=O)c4cc(C)ccc4OC)c3)C2)cc1OC1CCCC1

>  <recorded-value>
7.48

$$$$
>  <smiles-entry>
COc1ccc([C@H]2CC(=O)N(c3cccc(N)c3)C2)cc1OC1CCCC1

>  <recorded-value>
6.90

$$$$
>  <smiles-entry>
COc1ccc([C@H]2CC(=O)N(c3cccc(NS(=O)(=O)c4c(F)cccc4F)c3)C2)cc1OC1CCCC1

>  <recorded-value>
7.32

$$$$

Lab note: next compound to report on.
Entry COc1cccc(C(=O)C(=O)Nc2cccc(N3C[C@@H](c4ccc(OC)c(OC5CCCC5)c4)CC3=O)c2)c1 needs its pEC50 filled in; supply it.
6.30

---

- System: Human immunodeficiency virus 1
- protocol-text: Antiviral activity against wild type HIV1 virus
- Format: functional, organism-based
readout-kind: EC50 (nM)
Answers are plain numbers, in nM.

Use these answered entries as a reference point.
>  <smiles-entry>
COc1ccc([C@H]2CC(=O)N(c3cccc(C)c3)C2)cc1OC1CCCC1

>  <system-under-test>
Human immunodeficiency virus 1

>  <reading-unit>
nM

>  <EC50>
419

$$$$
>  <smiles-entry>
COc1cccc(S(=O)(=O)Nc2cccc(N3C[C@@H](c4ccc(OC)c(OC5CCCC5)c4)CC3=O)c2)c1

>  <system-under-test>
Human immunodeficiency virus 1

>  <reading-unit>
nM

>  <EC50>
25

$$$$
>  <smiles-entry>
COc1ccc([C@H]2CC(=O)N(c3ccccn3)C2)cc1OC1CCCC1

>  <system-under-test>
Human immunodeficiency virus 1

>  <reading-unit>
nM

>  <EC50>
2630

$$$$

Entry COc1ccc([C@H]2CC(=O)N(c3cccc(NS(=O)(=O)c4cccc(Cl)c4C)c3)C2)cc1OC1CCCC1 needs its EC50 filled in; supply it.
20

---

- Test system: Human immunodeficiency virus 1
- protocol-text: Antiviral activity against wild type HIV1 virus
- Type: functional, organism-based
readout-kind: log10 EC50 (log10 of the value in nM)
Values reflect log10 of reported EC50 (nM).

Use these answered entries as a reference point.
>  <molecule>
COc1ccc([C@H]2CC(=O)N(c3cccc(NS(=O)(=O)c4cc(Br)c(Cl)s4)c3)C2)cc1OC1CCCC1

>  <system-under-test>
Human immunodeficiency virus 1

>  <log10 EC50>
1.66

$$$$
>  <molecule>
COc1ccc([C@H]2CC(=O)N(c3ccc(C#N)cc3)C2)cc1OC1CCCC1

>  <system-under-test>
Human immunodeficiency virus 1

>  <log10 EC50>
2.82

$$$$
>  <molecule>
COc1ccc([C@H]2CC(=O)N(c3cccc(NS(=O)(=O)c4cccc(Br)c4)c3)C2)cc1OC1CCCC1

>  <system-under-test>
Human immunodeficiency virus 1

>  <log10 EC50>
1.85

$$$$
>  <molecule>
COc1ccc([C@H]2CC(=O)N(c3cccc(NC(=O)C(=O)c4cccs4)c3)C2)cc1OC1CCCC1

>  <system-under-test>
Human immunodeficiency virus 1

>  <log10 EC50>
2.70

$$$$
>  <molecule>
COc1ccc([C@H]2CC(=O)N(c3ccc(C)cc3)C2)cc1OC1CCCC1

>  <system-under-test>
Human immunodeficiency virus 1

>  <log10 EC50>
3.51

$$$$
>  <molecule>
CCCCNc1cccc(N2C[C@@H](c3ccc(OC)c(OC4CCCC4)c3)CC2=O)c1

>  <system-under-test>
Human immunodeficiency virus 1

>  <log10 EC50>
3.84

$$$$
>  <molecule>
COc1ccc([C@H]2CC(=O)N(c3cccc(NS(=O)(=O)c4ccccc4Cl)c3)C2)cc1OC1CCCC1

>  <system-under-test>
Human immunodeficiency virus 1

>  <log10 EC50>
1.62

$$$$
>  <molecule>
COc1ccc([C@H]2CC(=O)N(c3cccc(C(F)(F)F)c3)C2)cc1OC1CCCC1

>  <system-under-test>
Human immunodeficiency virus 1

>  <log10 EC50>
3.47

$$$$
>  <molecule>
COc1ccc([C@H]2CC(=O)N(c3cccc(NS(=O)(=O)c4cccc(Cl)c4)c3)C2)cc1OC1CCCC1

>  <system-under-test>
Human immunodeficiency virus 1

>  <log10 EC50>
1.40

$$$$
>  <molecule>
COc1ccc([C@H]2CC(=O)N(c3cccc(NS(=O)(=O)c4ccccc4F)c3)C2)cc1OC1CCCC1

>  <system-under-test>
Human immunodeficiency virus 1

>  <log10 EC50>
1.81

$$$$

Go through the items and report each one's log10 EC50.
1. COc1ccc(OC)c(S(=O)(=O)Nc2cccc(N3C[C@@H](c4ccc(OC)c(OC5CCCC5)c4)CC3=O)c2)c1
2. COc1ccc([C@H]2CC(=O)N(c3cccc(NCC4CCOC4)c3)C2)cc1OC1CCCC1 (stereo partly drawn)
3. COc1ccc([C@H]2CC(=O)N(c3ccccc3)C2)cc1OC1CCCC1
4. COc1ccc([C@H]2CC(=O)N(c3cccc(NS(=O)(=O)c4ccccc4Br)c3)C2)cc1OC1CCCC1

[2.02, 3.01, 3.36, 1.62]

---

- Test system: Human immunodeficiency virus 1
- protocol-text: Antiviral activity against wild type HIV1 virus
- Format: functional, organism-based
Binary label based on EC50 with cut-off 100 nM: below gives YES, not below gives NO.

>  <compound>
COc1ccc([C@H]2CC(=O)N(C(=O)c3ccccc3)C2)cc1OC1CCCC1

>  <assigned-class>
NO

$$$$
>  <compound>
COc1ccc([C@H]2CC(=O)N(c3ccccc3C(F)(F)F)C2)cc1OC1CCCC1

>  <assigned-class>
NO

$$$$

# strict comparison: is reported EC50 < 100 nM? input = COc1ccc([C@H]2CC(=O)N(c3ccc([S+](C)[O-])cc3)C2)cc1OC1CCCC1 (some centres undefined)
YES

# strict comparison: is reported EC50 < 100 nM? input = COc1ccc([C@H]2CC(=O)N(c3cccnc3)C2)cc1OC1CCCC1
NO

# strict comparison: is reported EC50 < 100 nM? input = COc1ccc([C@H]2CC(=O)N(c3ccc(C(F)(F)F)cc3)C2)cc1OC1CCCC1
NO

# strict comparison: is reported EC50 < 100 nM? input = COc1ccc([C@H]2CC(=O)N(c3ccccc3N)C2)cc1OC1CCCC1
NO

# strict comparison: is reported EC50 < 100 nM? input = COc1ccc([C@H]2CC(=O)N(c3ccc(S(C)(=O)=O)cc3)C2)cc1OC1CCCC1
NO

# strict comparison: is reported EC50 < 100 nM? input = COc1ccc([C@H]2CC(=O)N(c3cccc(NCCCc4ccccc4)c3)C2)cc1OC1CCCC1
NO

# strict comparison: is reported EC50 < 100 nM? input = COc1ccc([C@H]2CC(=O)N(c3cc(N)cc(F)c3)C2)cc1OC1CCCC1
YES

# strict comparison: is reported EC50 < 100 nM? input = COc1ccc([C@H]2CC(=O)N(c3ccccc3C#N)C2)cc1OC1CCCC1
NO

---

- System: Human immunodeficiency virus 1
- protocol-text: Selectivity for wild type HIV1 virus over HIV1 L100I mutant
- Type: functional
# label = bin(measured Selectivity ratio), where bins are lower range = under 0.5, middle range = from 0.5 up to 0.8, upper range = 0.8 and over

>  <compound>
COc1ccc([C@H]2CC(=O)N(c3cccc(NS(=O)(=O)c4cccc(Br)c4)c3)C2)cc1OC1CCCC1

>  <system-under-test>
Human immunodeficiency virus 1

>  <assigned-class>
middle range

$$$$

Exam item: assign COc1ccc([C@H]2CC(=O)N(c3cccc(NS(=O)(=O)c4ccccc4Cl)c3)C2)cc1OC1CCCC1 to the correct category.
lower range

Exam item: assign COc1cccc(S(=O)(=O)Nc2cccc(N3C[C@@H](c4ccc(OC)c(OC5CCCC5)c4)CC3=O)c2)c1 to the correct category.
upper range

Exam item: assign COc1ccc([C@H]2CC(=O)N(c3cccc(NS(=O)(=O)c4cc(Br)c(Cl)s4)c3)C2)cc1OC1CCCC1 to the correct category.
upper range

Exam item: assign COc1ccc([C@H]2CC(=O)N(c3cccc(NS(=O)(=O)c4cccc(Cl)c4)c3)C2)cc1OC1CCCC1 to the correct category.
upper range

Exam item: assign COc1ccc([C@H]2CC(=O)N(c3cccc(NS(=O)(=O)c4ccccc4F)c3)C2)cc1OC1CCCC1 to the correct category.
middle range

Exam item: assign COc1ccc([C@H]2CC(=O)N(c3cccc(NS(=O)(=O)c4ccccc4Br)c3)C2)cc1OC1CCCC1 to the correct category.
lower range

Exam item: assign COc1ccc([C@H]2CC(=O)N(c3cccc(NS(=O)(=O)c4cccc(Cl)c4C)c3)C2)cc1OC1CCCC1 to the correct category.
lower range

Exam item: assign COc1ccc([C@H]2CC(=O)N(c3cccc(NS(=O)(=O)c4cccc(F)c4)c3)C2)cc1OC1CCCC1 to the correct category.
lower range
